Please go through the items and note down their % Phosphatase Activity (compared to DMSO) PRL-2.
STUDY_TARGET: recombinant PRL-2 (Homo sapiens)
Construct: 6xHis (N, cleaved yes); made in house; host or cells: E. coli One Shot BL21 Star
Sequence (Q12974 whole entry): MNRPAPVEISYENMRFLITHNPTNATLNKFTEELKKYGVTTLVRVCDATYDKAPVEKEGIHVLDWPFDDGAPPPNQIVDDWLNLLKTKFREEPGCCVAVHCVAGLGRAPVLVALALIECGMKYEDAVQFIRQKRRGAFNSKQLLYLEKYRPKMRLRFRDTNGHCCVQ
MEASUREMENT_PROTOCOL: In vitro phosphatase assay (DiFMUP hydrolysis), PRL-2;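 also: PRL-2 activity read as DiFMUP hydrolysis after 20 min at room temperature with drug, enzyme first pre-reduced at 4 °C for 20 min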
Format: biochemical
COND: FDA-approved drug screen; compared to DMSO
Counter-ions that a name gives are not always drawn.
Your answer should be a plain number; it is taken to be in %.

[Q] Answer briefly: % Phosphatase Activity (compared to DMSO) PRL-2 recorded on recombinant PRL-2 (Homo sapiens) for C[C@H]1O[C@@H](O[C@H]2[C@@H](O)C[C@H](O[C@H]3[C@@H](O)C[C@H](O[C@H]4CC[C@@]5(C)[C@H](CC[C@@H]6[C@@H]5C[C@@H](O)[C@]5(C)[C@@H](C7=CC(=O)OC7)CC[C@]65O)C4)O[C@@H]3C)O[C@@H]2C)C[C@H](O)[C@@H]1O [Digoxin]
[A] 95

[Q] Answer briefly: % Phosphatase Activity (compared to DMSO) PRL-2 recorded on recombinant PRL-2 (Homo sapiens) for CC(C)c1c(C(=O)Nc2ccccc2)c(-c2ccccc2)c(-c2ccc(F)cc2)n1CC[C@@H](O)C[C@@H](O)CC(=O)O [Atorvastatin Calcium]
[A] 87

[Q] Answer briefly: % Phosphatase Activity (compared to DMSO) PRL-2 recorded on recombinant PRL-2 (Homo sapiens) for NC(=O)OCC(COC(N)=O)c1ccccc1 [Felbamate]
[A] 97

[Q] Answer briefly: % Phosphatase Activity (compared to DMSO) PRL-2 recorded on recombinant PRL-2 (Homo sapiens) for CCOc1ccccc1OC(c1ccccc1)C1CNCCO1.CS(=O)(=O)O (centres unmarked) [Reboxetine mesylate]
[A] 118

[Q] Answer briefly: % Phosphatase Activity (compared to DMSO) PRL-2 recorded on recombinant PRL-2 (Homo sapiens) for CC(C)(Oc1ccc(C2CC2(Cl)Cl)cc1)C(=O)O (centres unmarked) [Ciprofibrate]
[A] 91

[Q] Answer briefly: % Phosphatase Activity (compared to DMSO) PRL-2 recorded on recombinant PRL-2 (Homo sapiens) for Oc1c(Cl)cc(Cl)c2cccnc12 [Chloroxine]
[A] 111

[Q] Answer briefly: % Phosphatase Activity (compared to DMSO) PRL-2 recorded on recombinant PRL-2 (Homo sapiens) for COC(=O)C1=C(C)NC(C)=C(C(=O)OCC(C)C)C1c1ccccc1[N+](=O)[O-] (centres unmarked) [Nisoldipine]
[A] 75

[Q] Answer briefly: % Phosphatase Activity (compared to DMSO) PRL-2 recorded on recombinant PRL-2 (Homo sapiens) for Cc1cc(C2CCCCC2)n(O)c(=O)c1.NCCO [Ciclopirox ethanolamine]
[A] 109

[Q] Answer briefly: % Phosphatase Activity (compared to DMSO) PRL-2 recorded on recombinant PRL-2 (Homo sapiens) for C#Cc1cccc(Nc2ncnc3cc(OC)c(OCCCCCCC(=O)NO)cc23)c1 [CUDC-101]
[A] 87

[Q] Answer briefly: % Phosphatase Activity (compared to DMSO) PRL-2 recorded on recombinant PRL-2 (Homo sapiens) for CN(Cc1ccc(C(C)(C)C)cc1)Cc1cccc2ccccc12 [Butenafine HCl]
[A] 112

[Q] Answer briefly: % Phosphatase Activity (compared to DMSO) PRL-2 recorded on recombinant PRL-2 (Homo sapiens) for C[C@]12CC[C@@H]3c4ccc(O)cc4CC[C@H]3[C@@H]1CCC2=O [Estrone]
[A] 87

[Q] Answer briefly: % Phosphatase Activity (compared to DMSO) PRL-2 recorded on recombinant PRL-2 (Homo sapiens) for COc1ccc(O)cc1 [Mequinol]
[A] 120

[Q] Answer briefly: % Phosphatase Activity (compared to DMSO) PRL-2 recorded on recombinant PRL-2 (Homo sapiens) for N=C(N)NC(=O)c1nc(Cl)c(N)nc1N [Amiloride HCl]
[A] 300

[Q] Answer briefly: % Phosphatase Activity (compared to DMSO) PRL-2 recorded on recombinant PRL-2 (Homo sapiens) for COc1ccc(Cl)cc1C(=O)NCCc1ccc(S(=O)(=O)NC(=O)NC2CCCCC2)cc1 [Glyburide]
[A] 100

[Q] Answer briefly: % Phosphatase Activity (compared to DMSO) PRL-2 recorded on recombinant PRL-2 (Homo sapiens) for CC[C@H]1OC(=O)[C@H](C)[C@@H](O[C@H]2C[C@@](C)(OC)[C@@H](O)[C@H](C)O2)[C@H](C)[C@@H](O[C@@H]2O[C@H](C)C[C@H](N(C)C)[C@H]2O)[C@](C)(OC)C[C@@H](C)C(=O)[C@H](C)[C@@H](O)[C@]1(C)O [Clarithromycin]
[A] 111

[Q] Answer briefly: % Phosphatase Activity (compared to DMSO) PRL-2 recorded on recombinant PRL-2 (Homo sapiens) for CC(=O)O[C@H]1C[C@@H]2CC[C@@H]3[C@H](CC[C@@]4(C)[C@H]3C[C@H]([N+]3(C)CCCCC3)[C@@H]4OC(C)=O)[C@@]2(C)C[C@@H]1[N+]1(C)CCCCC1.[Br-].[Br-] [Pancuronium dibromide]
[A] 109

[Q] Answer briefly: % Phosphatase Activity (compared to DMSO) PRL-2 recorded on recombinant PRL-2 (Homo sapiens) for CCCC(C(=O)OCCN(CC)CC)(c1ccccc1)c1ccccc1 [Proadifen HCl]
[A] 106

[Q] Answer briefly: % Phosphatase Activity (compared to DMSO) PRL-2 recorded on recombinant PRL-2 (Homo sapiens) for Cc1cc(C(C#N)c2ccc(Cl)cc2)c(Cl)cc1NC(=O)c1cc(I)cc(I)c1[O-].[Na+] (centres unmarked) [Closantel Sodium, reference compound]
[A] 12

[Q] Answer briefly: % Phosphatase Activity (compared to DMSO) PRL-2 recorded on recombinant PRL-2 (Homo sapiens) for COc1ccc([C@]2(C#N)CC[C@@H](C(=O)O)CC2)cc1OC1CCCC1 [Cilomilast]
[A] 99

[Q] Answer briefly: % Phosphatase Activity (compared to DMSO) PRL-2 recorded on recombinant PRL-2 (Homo sapiens) for O=C(Nc1ccccc1)OCC(CN1CCCCC1)OC(=O)Nc1ccccc1 (centres unmarked) [Diperodon HCl]
[A] 98

[Q] Answer briefly: % Phosphatase Activity (compared to DMSO) PRL-2 recorded on recombinant PRL-2 (Homo sapiens) for C[C@@H](O)[C@H]1C(=O)N2C(C(=O)O)=C(S[C@@H]3CN[C@H](C(=O)N(C)C)C3)[C@H](C)[C@H]12 [Meropenem]
[A] 109

[Q] Answer briefly: % Phosphatase Activity (compared to DMSO) PRL-2 recorded on recombinant PRL-2 (Homo sapiens) for COC(=O)C1=CCCN(C)C1 [Arecoline]
[A] 131

[Q] Answer briefly: % Phosphatase Activity (compared to DMSO) PRL-2 recorded on recombinant PRL-2 (Homo sapiens) for Cn1c(=O)c2c(ncn2CC(O)CO)n(C)c1=O (centres unmarked) [Dyphylline]
[A] 103

[Q] Answer briefly: % Phosphatase Activity (compared to DMSO) PRL-2 recorded on recombinant PRL-2 (Homo sapiens) for CCN(CC)CC(=O)Nc1c(C)cccc1C [Lidocaine hydrochloride]
[A] 88

[Q] Answer briefly: % Phosphatase Activity (compared to DMSO) PRL-2 recorded on recombinant PRL-2 (Homo sapiens) for CC(=O)O.CC(=O)O.CC[C@H](C)C[C@H](C)CCCCCCCCC(=O)N[C@H]1C[C@@H](O)[C@@H](NCCN)NC(=O)[C@@H]2[C@@H](O)CCN2C(=O)[C@H]([C@H](O)CCN)NC(=O)[C@H]([C@H](O)[C@@H](O)c2ccc(O)cc2)NC(=O)[C@@H]2C[C@@H](O)CN2C(=O)[C@H]([C@@H](C)O)NC1=O [Caspofungin Acetate]
[A] 113

[Q] Answer briefly: % Phosphatase Activity (compared to DMSO) PRL-2 recorded on recombinant PRL-2 (Homo sapiens) for CCCCCCCCOc1ccccc1C(=O)Nc1ccc(C(=O)OCC[N+](C)(CC)CC)cc1 [Otilonium Bromide]
[A] 105

[Q] Answer briefly: % Phosphatase Activity (compared to DMSO) PRL-2 recorded on recombinant PRL-2 (Homo sapiens) for CC(=O)c1cc2c(o1)C(=O)c1ccccc1C2=O [Napabucasin, reference compound]
[A] 26

[Q] Answer briefly: % Phosphatase Activity (compared to DMSO) PRL-2 recorded on recombinant PRL-2 (Homo sapiens) for C[C@@H](O)[C@H]1C(=O)N2C(C(=O)O)=C(S[C@@H]3CN[C@H](CNS(N)(=O)=O)C3)[C@H](C)[C@H]12.O [Doripenem Hydrate]
[A] 107

[Q] Answer briefly: % Phosphatase Activity (compared to DMSO) PRL-2 recorded on recombinant PRL-2 (Homo sapiens) for CC1(C)Cc2c(-c3ccccc3)c(-c3ccc(Cl)cc3)c(CC(=O)O)n2C1 [Licofelone]
[A] 85

Origin of measurements: paper PMC8119466
